The origin of these recorded values is paper PMC4850841.

molecular target: GluN1/GluN2C (Rattus norvegicus); test: Two electrode voltage clamp recordings, Xenopus laevis oocytes; type: cell-based; details: 100 µM glutamate, 30 µM glycine
measured_metric: activity at GluN1/GluN2C

1) COc1cc2c(cc1OC)CN(C(=O)c1cccc(Br)c1)CC2 ... inactive
2) COc1cc2c(cc1OC)CN(C(=O)c1cccc(Cl)c1)CC2 ... inactive
3) COc1cc2c(cc1OC)CN(C(=O)c1ccccc1)CC2 ... inactive

====

biological target: GluN1/GluN2D (Rattus norvegicus, UniProt Q62645); test: Two electrode voltage clamp recordings, Xenopus laevis oocytes; type: cell-based; conditions: 100 µM glutamate, 30 µM glycine
Sequence (Q62645 28-1323, other chains not shown): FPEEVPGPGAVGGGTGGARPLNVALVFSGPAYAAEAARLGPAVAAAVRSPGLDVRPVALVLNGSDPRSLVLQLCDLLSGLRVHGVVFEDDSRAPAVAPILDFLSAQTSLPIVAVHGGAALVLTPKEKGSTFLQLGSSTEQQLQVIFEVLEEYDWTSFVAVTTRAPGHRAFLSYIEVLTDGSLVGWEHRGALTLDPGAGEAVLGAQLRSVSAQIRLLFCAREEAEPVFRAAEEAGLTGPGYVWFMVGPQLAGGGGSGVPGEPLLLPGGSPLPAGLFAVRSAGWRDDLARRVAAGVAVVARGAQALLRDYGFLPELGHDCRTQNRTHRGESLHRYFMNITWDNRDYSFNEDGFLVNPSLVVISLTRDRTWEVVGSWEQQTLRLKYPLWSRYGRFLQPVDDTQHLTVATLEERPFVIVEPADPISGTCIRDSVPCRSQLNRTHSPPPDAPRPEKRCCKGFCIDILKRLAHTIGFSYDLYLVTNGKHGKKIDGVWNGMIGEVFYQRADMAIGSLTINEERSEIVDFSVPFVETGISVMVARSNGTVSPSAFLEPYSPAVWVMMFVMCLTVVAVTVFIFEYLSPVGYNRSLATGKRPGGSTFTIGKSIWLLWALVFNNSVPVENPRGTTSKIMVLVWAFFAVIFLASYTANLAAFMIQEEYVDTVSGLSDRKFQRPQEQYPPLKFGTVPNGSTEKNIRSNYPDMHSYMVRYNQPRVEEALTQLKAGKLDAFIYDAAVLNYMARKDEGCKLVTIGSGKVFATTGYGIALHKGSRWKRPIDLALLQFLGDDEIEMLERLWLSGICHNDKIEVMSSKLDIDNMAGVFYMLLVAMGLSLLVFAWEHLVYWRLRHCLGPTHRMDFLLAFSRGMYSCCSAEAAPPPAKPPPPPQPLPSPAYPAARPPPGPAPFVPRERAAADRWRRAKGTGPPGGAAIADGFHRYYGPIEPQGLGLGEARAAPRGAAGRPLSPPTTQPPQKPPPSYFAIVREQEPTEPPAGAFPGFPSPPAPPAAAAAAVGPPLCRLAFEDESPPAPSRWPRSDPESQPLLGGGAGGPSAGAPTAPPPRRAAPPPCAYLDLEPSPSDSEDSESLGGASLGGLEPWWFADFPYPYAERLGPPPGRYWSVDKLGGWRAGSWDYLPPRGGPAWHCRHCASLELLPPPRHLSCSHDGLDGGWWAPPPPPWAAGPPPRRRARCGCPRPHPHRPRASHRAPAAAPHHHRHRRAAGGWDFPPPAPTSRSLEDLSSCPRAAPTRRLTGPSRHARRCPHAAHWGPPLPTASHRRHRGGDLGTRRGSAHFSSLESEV
measured_metric: activity at GluN1/GluN2D

1) COc1cc2c(cc1OC)CN(C(=O)c1cccc(Br)c1)CC2 [compound 7] ... inactive
2) COc1cc2c(cc1OC)CN(C(=O)c1cccc(Cl)c1)CC2 [compound 6] ... inactive
3) COc1cc2c(cc1OC)CN(C(=O)c1ccccc1)CC2 [compound 5] ... inactive

====

target: GluN1/GluN2A (Rattus norvegicus, UniProt Q00959); assay: Two electrode voltage clamp recordings, Xenopus laevis oocytes; format: cell-based; conditions: 100 µM glutamate, 30 µM glycine
Sequence (Q00959 23-1464, other chains not shown): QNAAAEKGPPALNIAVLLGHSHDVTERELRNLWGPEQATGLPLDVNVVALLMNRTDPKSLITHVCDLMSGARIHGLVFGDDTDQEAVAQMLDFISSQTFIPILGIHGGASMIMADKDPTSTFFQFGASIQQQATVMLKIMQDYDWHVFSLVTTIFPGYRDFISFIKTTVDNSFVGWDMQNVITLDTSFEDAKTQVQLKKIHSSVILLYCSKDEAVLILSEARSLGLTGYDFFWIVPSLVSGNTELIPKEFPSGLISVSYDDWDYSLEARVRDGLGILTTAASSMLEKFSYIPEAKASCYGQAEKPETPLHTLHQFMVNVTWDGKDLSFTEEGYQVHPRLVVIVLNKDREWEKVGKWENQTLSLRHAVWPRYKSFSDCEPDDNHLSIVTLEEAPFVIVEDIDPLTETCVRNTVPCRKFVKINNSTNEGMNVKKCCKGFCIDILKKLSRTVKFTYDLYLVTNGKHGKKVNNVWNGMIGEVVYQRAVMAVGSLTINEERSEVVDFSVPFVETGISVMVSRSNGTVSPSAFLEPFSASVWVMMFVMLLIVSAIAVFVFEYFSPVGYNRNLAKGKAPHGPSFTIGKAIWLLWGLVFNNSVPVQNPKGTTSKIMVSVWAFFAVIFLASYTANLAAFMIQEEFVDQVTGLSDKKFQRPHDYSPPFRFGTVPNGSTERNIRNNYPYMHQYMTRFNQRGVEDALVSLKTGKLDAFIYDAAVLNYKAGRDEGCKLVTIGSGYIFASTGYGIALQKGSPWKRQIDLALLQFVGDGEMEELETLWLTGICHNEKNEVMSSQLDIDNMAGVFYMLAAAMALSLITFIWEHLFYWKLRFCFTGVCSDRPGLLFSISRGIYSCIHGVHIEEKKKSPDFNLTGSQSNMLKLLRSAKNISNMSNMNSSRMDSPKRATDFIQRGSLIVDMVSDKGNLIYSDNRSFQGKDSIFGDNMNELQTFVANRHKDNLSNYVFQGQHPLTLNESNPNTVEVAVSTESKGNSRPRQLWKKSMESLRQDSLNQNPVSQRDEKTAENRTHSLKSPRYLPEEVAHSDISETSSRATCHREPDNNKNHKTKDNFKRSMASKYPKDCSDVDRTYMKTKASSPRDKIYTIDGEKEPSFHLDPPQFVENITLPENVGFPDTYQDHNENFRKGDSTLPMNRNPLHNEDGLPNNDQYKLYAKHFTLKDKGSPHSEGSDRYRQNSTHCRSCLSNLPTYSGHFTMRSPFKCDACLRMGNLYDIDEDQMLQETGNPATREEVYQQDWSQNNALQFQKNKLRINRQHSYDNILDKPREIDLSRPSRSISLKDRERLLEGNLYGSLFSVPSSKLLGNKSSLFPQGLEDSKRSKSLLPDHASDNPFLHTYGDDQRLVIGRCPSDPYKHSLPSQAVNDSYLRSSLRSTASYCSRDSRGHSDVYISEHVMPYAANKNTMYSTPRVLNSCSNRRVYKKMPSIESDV
measured_metric: effect on GluN1/GluN2A responses

1. COc1cc2c(cc1OC)CN(C(=O)c1ccccc1)CC2 ... inactive
2. COc1cc2c(cc1OC)CN(C(=O)c1cccc(Br)c1)CC2 ... inactive
3. COc1cc2c(cc1OC)CN(C(=O)c1cccc(Cl)c1)CC2 ... inactive

====

target: GluA1 (Rattus norvegicus, UniProt P19490); experiment: Two electrode voltage clamp recordings, Xenopus laevis oocytes; format: cell-based; settings: co-applied with 100 µM glutamate
measured_metric: effect on homomeric GluA1 responses

1. COc1ccc(OCC2c3cc(OC)c(OC)cc3CCN2C(=O)c2cccc(C#N)c2)cc1 (stereo not drawn) ... no effects
2. COc1ccc(OCC2c3cc(OC)c(OC)cc3CCN2C(=O)c2ccc3ccccc3c2)cc1 (stereo not drawn) ... no effects
3. COc1ccc(OCC2c3cc(OC)c(OC)cc3CCN2C(=O)CN2CCOCC2)cc1 (stereo not drawn) ... no effects

====

molecular target: GluK2 (Rattus norvegicus); assay: Two electrode voltage clamp recordings, Xenopus laevis oocytes; format: cell-based; settings: co-applied with 100 µM glutamate
Sequence (P42260 32-908): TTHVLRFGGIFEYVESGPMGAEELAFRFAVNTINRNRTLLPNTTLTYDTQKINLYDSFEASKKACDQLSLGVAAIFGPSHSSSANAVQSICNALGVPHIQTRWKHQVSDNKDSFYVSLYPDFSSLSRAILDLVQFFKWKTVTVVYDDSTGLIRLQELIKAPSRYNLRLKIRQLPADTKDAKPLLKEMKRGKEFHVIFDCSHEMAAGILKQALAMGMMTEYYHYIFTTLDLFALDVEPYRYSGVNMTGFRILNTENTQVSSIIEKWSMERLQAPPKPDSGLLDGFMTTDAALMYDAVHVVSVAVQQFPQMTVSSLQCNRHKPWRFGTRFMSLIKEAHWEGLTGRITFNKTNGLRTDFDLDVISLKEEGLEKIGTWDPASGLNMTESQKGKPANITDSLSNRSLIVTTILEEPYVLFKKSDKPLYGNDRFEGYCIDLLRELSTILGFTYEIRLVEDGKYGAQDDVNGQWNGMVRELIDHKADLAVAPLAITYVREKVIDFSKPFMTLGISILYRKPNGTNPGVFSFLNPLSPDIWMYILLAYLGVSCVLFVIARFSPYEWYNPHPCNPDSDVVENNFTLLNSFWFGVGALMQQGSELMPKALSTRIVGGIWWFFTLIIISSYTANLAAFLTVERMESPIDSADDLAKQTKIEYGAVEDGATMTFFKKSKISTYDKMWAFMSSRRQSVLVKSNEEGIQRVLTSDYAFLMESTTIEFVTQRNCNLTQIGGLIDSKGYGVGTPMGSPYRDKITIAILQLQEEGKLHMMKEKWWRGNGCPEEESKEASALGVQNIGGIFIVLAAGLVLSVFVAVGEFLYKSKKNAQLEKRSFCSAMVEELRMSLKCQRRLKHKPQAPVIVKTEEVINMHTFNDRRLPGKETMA
measured_metric: effect on GluK2-mediated currents

1. COc1ccc(OCC2c3cc(OC)c(OC)cc3CCN2C(=O)c2cccc(Br)c2)cc1 (stereo not shown) ... no effect
2. COc1ccc(OCC2c3cc(OC)c(OC)cc3CCN2C(=O)c2cccc(Cl)c2)cc1 (stereo not shown) ... no effect
3. COc1ccc(OCC2c3cc(OC)c(OC)cc3CCN2C(=O)c2cccc(F)c2)cc1 (stereo not shown) ... no effect
4. COc1ccc(OCC2c3cc(OC)c(OC)cc3CCN2C(=O)c2ccccc2)cc1 (stereo not shown) ... no effect

====

biological target: GluN1/GluN2B (Rattus norvegicus, UniProt Q00960); experiment: Two electrode voltage clamp recordings, Xenopus laevis oocytes; assay type: cell-based; settings: 100 µM glutamate, 30 µM glycine
Sequence (Q00960 27-1482, other chains not shown): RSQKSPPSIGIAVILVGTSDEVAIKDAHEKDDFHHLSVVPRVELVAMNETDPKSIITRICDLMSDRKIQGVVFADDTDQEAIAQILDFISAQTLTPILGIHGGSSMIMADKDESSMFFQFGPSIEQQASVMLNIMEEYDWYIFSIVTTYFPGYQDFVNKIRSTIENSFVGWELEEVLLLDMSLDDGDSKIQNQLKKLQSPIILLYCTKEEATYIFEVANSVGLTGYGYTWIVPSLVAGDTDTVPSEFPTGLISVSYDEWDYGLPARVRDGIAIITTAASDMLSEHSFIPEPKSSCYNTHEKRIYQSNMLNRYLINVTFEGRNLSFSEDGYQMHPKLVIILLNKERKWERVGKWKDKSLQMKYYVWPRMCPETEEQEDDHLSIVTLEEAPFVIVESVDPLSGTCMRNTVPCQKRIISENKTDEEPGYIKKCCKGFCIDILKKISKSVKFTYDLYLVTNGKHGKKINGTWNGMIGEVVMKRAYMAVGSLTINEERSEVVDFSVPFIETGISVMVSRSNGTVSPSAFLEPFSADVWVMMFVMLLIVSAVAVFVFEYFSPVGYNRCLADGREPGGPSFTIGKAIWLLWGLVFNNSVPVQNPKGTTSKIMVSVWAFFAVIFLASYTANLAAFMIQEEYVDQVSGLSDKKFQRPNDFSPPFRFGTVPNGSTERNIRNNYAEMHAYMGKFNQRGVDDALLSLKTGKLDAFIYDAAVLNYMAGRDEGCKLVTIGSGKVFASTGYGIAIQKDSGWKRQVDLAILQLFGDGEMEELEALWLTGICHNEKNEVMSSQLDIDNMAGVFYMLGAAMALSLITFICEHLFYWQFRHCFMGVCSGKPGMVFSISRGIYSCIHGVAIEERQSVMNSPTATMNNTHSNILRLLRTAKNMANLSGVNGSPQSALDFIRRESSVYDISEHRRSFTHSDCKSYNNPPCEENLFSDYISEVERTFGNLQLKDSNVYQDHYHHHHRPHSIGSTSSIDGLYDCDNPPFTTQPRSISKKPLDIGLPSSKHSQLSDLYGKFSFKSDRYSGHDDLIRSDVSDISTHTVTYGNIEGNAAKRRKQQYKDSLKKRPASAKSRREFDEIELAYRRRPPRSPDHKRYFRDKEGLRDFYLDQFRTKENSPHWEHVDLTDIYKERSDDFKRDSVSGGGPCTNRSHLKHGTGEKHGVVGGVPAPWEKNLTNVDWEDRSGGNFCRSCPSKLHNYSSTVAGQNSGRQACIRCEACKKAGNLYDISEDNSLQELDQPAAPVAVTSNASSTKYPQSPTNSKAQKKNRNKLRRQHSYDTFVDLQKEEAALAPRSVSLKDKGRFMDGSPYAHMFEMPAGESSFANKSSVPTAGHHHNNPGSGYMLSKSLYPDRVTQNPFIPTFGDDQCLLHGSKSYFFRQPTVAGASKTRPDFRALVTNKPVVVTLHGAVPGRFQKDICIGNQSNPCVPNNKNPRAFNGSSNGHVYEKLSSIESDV
measured_metric: effect on GluN1/GluN2B responses

1. COc1cc2c(cc1OC)CN(C(=O)c1ccccc1)CC2 ... inactive
2. COc1cc2c(cc1OC)CN(C(=O)c1cccc(Cl)c1)CC2 ... inactive
3. COc1cc2c(cc1OC)CN(C(=O)c1cccc(Br)c1)CC2 ... inactive
